Please provide measured DC50 for the entries that follow.
- MEASUREMENT TARGET: AR (Homo sapiens, UniProt P10275, T878A)
- Sequence (P10275 whole entry T878A): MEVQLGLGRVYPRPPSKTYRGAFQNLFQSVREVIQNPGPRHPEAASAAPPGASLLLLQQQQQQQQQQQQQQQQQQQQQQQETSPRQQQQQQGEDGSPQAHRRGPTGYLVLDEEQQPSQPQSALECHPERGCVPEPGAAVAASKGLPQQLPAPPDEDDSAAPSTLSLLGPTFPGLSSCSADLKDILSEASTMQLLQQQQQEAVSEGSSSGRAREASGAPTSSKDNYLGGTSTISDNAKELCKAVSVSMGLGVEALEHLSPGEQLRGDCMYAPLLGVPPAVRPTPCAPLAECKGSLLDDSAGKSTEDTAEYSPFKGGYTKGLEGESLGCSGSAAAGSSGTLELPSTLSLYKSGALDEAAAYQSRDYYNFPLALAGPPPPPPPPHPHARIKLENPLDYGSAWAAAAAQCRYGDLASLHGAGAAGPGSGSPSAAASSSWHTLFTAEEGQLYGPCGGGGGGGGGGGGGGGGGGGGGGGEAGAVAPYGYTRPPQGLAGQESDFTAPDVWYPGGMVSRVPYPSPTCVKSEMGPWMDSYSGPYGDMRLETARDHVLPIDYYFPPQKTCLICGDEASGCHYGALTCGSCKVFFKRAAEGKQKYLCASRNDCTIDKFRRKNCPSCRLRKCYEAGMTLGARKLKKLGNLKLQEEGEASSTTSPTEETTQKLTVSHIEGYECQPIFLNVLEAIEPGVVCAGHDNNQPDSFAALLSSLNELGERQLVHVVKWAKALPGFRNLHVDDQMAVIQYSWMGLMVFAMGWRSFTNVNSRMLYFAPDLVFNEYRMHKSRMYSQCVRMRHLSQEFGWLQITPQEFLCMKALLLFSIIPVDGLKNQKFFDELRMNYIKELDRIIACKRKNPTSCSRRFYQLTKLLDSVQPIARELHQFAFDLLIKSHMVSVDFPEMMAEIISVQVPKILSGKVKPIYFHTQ
- PROTOCOL SUMMARY: Effects of compounds on AR expression in LNCaP cells (ELISA, DC50)
- Assay type: cell-based
- Parameters: Measurement of the Effects of Drugs on the Expression of AR in Cells by ELISA Method; endogenous in cells; host or cells: LNCaP
- CONDITION CONTEXT: 24 hours of drug treatment, AR by ELISA

• CC1(C)C(=O)N(c2ccc(C#N)c(C(F)(F)F)c2F)C(=S)N1c1ccc(-c2ccc(C(=O)N3CCN(C(=O)COc4cccc5c4C(=O)N(C4CCC(=O)NC4=O)C5=O)CC3)cc2)nc1 (stereo not shown) = > 2000 nM
• Cc1ncsc1-c1ccc(CNC(=O)[C@@H]2C[C@@H](O)CN2C(=O)[C@@H](NC(=O)c2ccc(C(F)(F)C(=O)Nc3ccc(-c4ccc(N5C(=S)N(c6ccc(C#N)c(C(F)(F)F)c6F)C(=O)C5(C)C)cn4)cc3)cc2)C(C)(C)C)cc1 = 807 nM
• CC(C)(C)[C@H](NC(=O)COCCCCOc1ccc(-c2ccc(N3C(=S)N(c4ccc(C#N)c(C(F)(F)F)c4F)C(=O)C3(C)C)cn2)cc1)C(=O)N1C[C@H](O)C[C@H]1c1nc(-c2cncs2)c[nH]1 = 71.9 nM

Would you kindly look at the next entry?
Endpoint output: DC50 of Cc1ncsc1-c1ccc(CNC(=O)[C@@H]2C[C@@H](O)CN2C(=O)[C@@H](NC(=O)CCCn2cc(COc3ccc(-c4ncc(N5C(=S)N(c6ccc(C#N)c(C(F)(F)F)c6F)C(=O)C5(C)C)cc4F)cc3F)nn2)C(C)(C)C)cc1 . Value?
54.9 nM

----------
- MEASUREMENT TARGET: AR (Homo sapiens, UniProt P10275, T878A)
- PROTOCOL SUMMARY: Effects of compounds on AR expression in LNCaP cells (ELISA, DC50)
- Format: cell-based
- Design: Measurement of the Effects of Drugs on the Expression of AR in Cells by ELISA Method; endogenous in cells; host or cells: LNCaP
- CONDITION CONTEXT: 24 hours of drug treatment, AR by ELISA
- Method: Activity Assay Example 1: Effects of Compounds on AR Expression in LNCaP Cells 1. Cell Line and Cell Culture Human prostate cancer cells LNCaP (Shanghai Chinese Academy of Sciences Cell Bank). LNCaP was cultured in 1640 medium containing 10% fetal bovine serum. […] 4.6 The reaction wells were added with 100 ul/well of stop solution, mixed well and then the OD450 value was measured with a microplate reader. […]
MEASUREMENT TYPE: DC50

- CC1(C)C(=O)N(c2ccc(C#N)c(C(F)(F)F)c2F)C(=S)N1c1ccc(CCCC(=O)NCCNC(=O)COc2cccc3c2C(=O)N(C2CCC(=O)NC2=O)C3=O)nc1 (stereo not drawn): > 2000 nM
- COc1c(C#N)ccc(N2C(=O)C(C)(C)N(c3ccc(-c4ccc(OCCCCOCC(=O)N[C@H](C(=O)N5C[C@H](O)C[C@H]5C(=O)NCc5ccc(-c6scnc6C)cc5)C(C)(C)C)cc4)nc3)C2=S)c1F: 49.8 nM

Would you kindly look at the next entry?
Endpoint output: DC50 of COc1c(C#N)ccc(N2C(=O)C(C)(C)N(c3cnc(-c4ccc(OCCCCOCC(=O)N[C@H](C(=O)N5C[C@H](O)C[C@H]5C(=O)NCc5ccc(-c6scnc6C)cc5)C(C)(C)C)cc4C(F)(F)F)c(F)c3)C2=S)c1F . Value?
39 nM
